Target: human wildtype CFTR (Homo sapiens, UniProt P13569)
Construct: expressed in transfected cells; host or cells: Fischer rat thyroid (FRT) cells
Sequence (P13569 whole entry): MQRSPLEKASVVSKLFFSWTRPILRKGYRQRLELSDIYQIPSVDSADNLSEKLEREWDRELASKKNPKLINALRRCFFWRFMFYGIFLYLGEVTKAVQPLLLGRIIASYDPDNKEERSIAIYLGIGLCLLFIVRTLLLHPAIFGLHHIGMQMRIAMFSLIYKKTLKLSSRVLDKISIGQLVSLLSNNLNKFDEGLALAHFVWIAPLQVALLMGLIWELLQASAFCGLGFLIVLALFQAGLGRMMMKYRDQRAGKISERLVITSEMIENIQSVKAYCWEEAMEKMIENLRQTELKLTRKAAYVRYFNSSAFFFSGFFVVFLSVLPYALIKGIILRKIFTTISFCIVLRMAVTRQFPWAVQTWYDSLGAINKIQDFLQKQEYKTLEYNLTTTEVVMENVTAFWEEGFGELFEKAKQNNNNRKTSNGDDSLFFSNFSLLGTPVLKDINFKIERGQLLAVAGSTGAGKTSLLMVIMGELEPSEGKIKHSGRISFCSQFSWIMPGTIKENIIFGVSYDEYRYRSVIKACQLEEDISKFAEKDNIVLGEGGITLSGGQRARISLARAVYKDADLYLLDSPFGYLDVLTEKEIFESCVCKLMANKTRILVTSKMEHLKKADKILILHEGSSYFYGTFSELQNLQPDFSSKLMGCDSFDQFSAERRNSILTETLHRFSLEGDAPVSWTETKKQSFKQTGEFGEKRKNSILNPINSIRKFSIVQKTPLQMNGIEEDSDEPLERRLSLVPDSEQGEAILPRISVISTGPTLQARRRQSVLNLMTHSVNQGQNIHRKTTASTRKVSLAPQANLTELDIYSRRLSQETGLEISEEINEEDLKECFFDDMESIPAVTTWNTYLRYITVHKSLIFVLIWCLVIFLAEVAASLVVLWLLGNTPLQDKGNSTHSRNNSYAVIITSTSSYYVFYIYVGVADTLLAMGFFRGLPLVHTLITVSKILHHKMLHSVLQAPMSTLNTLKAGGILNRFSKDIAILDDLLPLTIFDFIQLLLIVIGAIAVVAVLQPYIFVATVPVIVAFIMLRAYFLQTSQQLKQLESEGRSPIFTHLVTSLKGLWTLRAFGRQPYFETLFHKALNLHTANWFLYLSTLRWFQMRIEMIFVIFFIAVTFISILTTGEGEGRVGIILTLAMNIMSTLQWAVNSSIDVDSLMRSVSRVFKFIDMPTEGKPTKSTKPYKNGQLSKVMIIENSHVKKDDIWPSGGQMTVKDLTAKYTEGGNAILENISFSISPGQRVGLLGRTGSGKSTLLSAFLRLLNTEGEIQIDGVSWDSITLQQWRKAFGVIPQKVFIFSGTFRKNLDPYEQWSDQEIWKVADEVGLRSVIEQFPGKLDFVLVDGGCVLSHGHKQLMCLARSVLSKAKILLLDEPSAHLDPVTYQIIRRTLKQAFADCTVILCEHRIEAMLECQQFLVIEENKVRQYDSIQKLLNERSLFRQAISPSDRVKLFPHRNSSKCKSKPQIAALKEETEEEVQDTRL
Assay: Fluorescence platereader assay of CFTR-mediated iodide influx (YFP quenching) in FRT cells
Type: cell-based
Details: FRT, read-out: % inhibition at 25/5 μM (25 μM value); Table 1; 25 μM compound
Value kind: inhibition at 25 µM (%)

> print(dat)
                                   molecule           value.kind  result.value
1  Cc1cccc(-c2c3c(=O)n(C)c(=O)n(C)c3c3n2-c2ccccc2NC3c2ccccc2F)c1 (stereo not shown)  inhibition at 25 µM            80
2  Cn1c(=O)c2c(-c3ccccc3)n3c(c2n(C)c1=O)C(c1ccc(O)cc1)Nc1ccccc1-3 (stereo not shown)  inhibition at 25 µM            86
3  Cn1c(=O)c2c(-c3ccccc3)n3c(c2n(C)c1=O)C(c1cccc([N+](=O)[O-])c1)Nc1ccccc1-3 (stereo not shown)  inhibition at 25 µM            90
4  Cn1c(=O)c2c(-c3ccccc3)n3c(c2n(C)c1=O)C(c1ccccc1F)Nc1ccccc1-3 (stereo not shown)  inhibition at 25 µM            81
5  Cc1ccc(C2Nc3cc(C)c(C)cc3-n3c(-c4ccccc4)c4c(=O)n(C)c(=O)n(C)c4c32)o1 (stereo not shown)  inhibition at 25 µM            90
6  Cc1ccccc1-c1c2c(=O)n(C)c(=O)n(C)c2c2n1-c1ccccc1NC2c1cccc([N+](=O)[O-])c1 (stereo not shown)  inhibition at 25 µM            96
7  Cn1c(=O)c2c(-c3ccccc3)n3c(c2n(C)c1=O)C(c1cccc(F)c1F)Nc1ccccc1-3 (stereo not shown)  inhibition at 25 µM            93

Numbers sourced from patent US8609661B2.
